system: K4 kissing-loop RNA reporter; assay: apparent KD of K4 kissing-loop reporter; higher = weaker reporter binding; conditions: Eterna round: R107; input ligand: none;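 note: bound reporter read as fluorescence of individual clusters on recovered sequencing chips by microscopy, with normalized cluster intensities fitted with a binding model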

RESIDUE CODES	apparent KD of K4 kissing-loop reporter
UGUGAUGAGUAGAGUGAUGUUUUGAAGGAUACCAGAGUGUUGUUAUUCCCUUGGCAGCUUGAGUGAUGUUUGAUGUUGUUGUUGU [rcrrmullin]	253 nM
AGAUCUGUAACAGAUACCAGAGGACGAUGAUCGGACAGUGAUGUUAUCUGUCAGUCGUCGCUCCCUUGGCAGCUGUUACAGAUCA [Omei KL Theo B SS B v3]	73.7 nM
AAAUAGCUGACGUUGAGUGGGAGCCAGGCACGAGGACCGGUACGGCCGCCACUCGACUAGGUUUUCAGUGAUGUUGAAAAUUUAA [Exclusion Tryptophan A GF 5]	206 nM
ACGAUCAUGGCAGGAUAUACGAAUGCAUUAGGGCUGCCAGUGAUGUUGGUGGACCGAGGACGUAGAGUAGAAGGGCCGACUUAAA [Leonmain]	139 nM
CGCGACGUGGUCACGCCAGUCUCGUUAACCAAGGAUAUUGAGAAGACAAGAAGGUGGAUGUACCAUAGUGAUGUUGUGGUCAGUA [theeternabot_sameState_KL_FMN_A_17]	465 nM
UUUUUAAUCGCAGAUACCAGUCCAGAAUGAAUACUAUAGUGAUGUUAUAAUAAAGGGAAGGACCCUUGGCAGCUGUACUAUAUUU [AstrosSsTheB#6]	398 nM
